tgt: (α4)2(β2)3 nAChR (high sensitivity) (Rattus norvegicus, UniProt P09483+P12390, P09483:L285I)
Construct: gene Chrna4; subunits in pGEMhe, mRNA alpha4:beta2 1:10 injected in Xenopus laevis oocytes; pentamer
Sequence (P09483 31-630 L285I, one chain of several): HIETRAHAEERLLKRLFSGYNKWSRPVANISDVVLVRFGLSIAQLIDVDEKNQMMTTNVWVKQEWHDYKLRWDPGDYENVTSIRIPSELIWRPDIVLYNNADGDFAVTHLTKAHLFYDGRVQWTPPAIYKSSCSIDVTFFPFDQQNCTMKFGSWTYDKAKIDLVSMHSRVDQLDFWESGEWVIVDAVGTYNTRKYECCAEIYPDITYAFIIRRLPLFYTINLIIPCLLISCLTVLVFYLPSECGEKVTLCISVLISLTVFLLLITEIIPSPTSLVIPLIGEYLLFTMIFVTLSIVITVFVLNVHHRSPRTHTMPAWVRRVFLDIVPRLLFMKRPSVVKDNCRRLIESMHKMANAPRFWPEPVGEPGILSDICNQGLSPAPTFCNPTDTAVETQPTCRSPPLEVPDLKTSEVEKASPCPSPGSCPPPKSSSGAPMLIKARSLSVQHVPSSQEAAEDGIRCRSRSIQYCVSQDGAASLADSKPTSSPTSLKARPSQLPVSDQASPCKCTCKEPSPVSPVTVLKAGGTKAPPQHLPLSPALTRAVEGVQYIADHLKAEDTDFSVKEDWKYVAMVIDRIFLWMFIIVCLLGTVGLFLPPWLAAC
assay name: two-electrode voltage clamp, Xenopus oocytes
Format: cell-based
reported conditions: read-out: IC50 (μM (-)-menthol) ± SEM
Text: two-electrode voltage clamp, Xenopus oocytes on (α4)2(β2)3 nAChR (high sensitivity)
measurement type: IC50 (µM)

[[record]]
compound = "CC(C)[C@@H]1CC[C@@H](C)C[C@H]1O [(−)-menthol]"
assay_result = 97.3


----------
tgt: (α4)2(β2)3 nAChR (high sensitivity) (Rattus norvegicus, UniProt P09483+P12390, P09483:L285Q)
Construct: gene Chrna4; subunits in pGEMhe, mRNA alpha4:beta2 1:10 injected in Xenopus laevis oocytes; pentamer
Sequence (P09483 31-630 L285Q): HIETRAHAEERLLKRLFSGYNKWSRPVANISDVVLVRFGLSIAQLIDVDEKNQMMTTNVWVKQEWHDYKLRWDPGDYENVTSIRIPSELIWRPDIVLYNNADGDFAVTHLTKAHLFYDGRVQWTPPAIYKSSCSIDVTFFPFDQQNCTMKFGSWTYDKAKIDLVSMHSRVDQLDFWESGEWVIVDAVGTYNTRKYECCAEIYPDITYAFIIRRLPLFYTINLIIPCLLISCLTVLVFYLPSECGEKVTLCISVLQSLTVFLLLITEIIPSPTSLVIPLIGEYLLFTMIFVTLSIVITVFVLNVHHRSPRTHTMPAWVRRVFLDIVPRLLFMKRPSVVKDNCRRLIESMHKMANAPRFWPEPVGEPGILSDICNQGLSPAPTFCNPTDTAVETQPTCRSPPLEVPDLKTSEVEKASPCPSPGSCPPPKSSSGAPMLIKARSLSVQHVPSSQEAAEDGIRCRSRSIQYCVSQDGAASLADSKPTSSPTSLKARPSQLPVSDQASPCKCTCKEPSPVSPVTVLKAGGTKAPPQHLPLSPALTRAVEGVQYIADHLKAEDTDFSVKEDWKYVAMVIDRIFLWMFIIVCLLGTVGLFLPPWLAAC
Sequence (P12390 25-500): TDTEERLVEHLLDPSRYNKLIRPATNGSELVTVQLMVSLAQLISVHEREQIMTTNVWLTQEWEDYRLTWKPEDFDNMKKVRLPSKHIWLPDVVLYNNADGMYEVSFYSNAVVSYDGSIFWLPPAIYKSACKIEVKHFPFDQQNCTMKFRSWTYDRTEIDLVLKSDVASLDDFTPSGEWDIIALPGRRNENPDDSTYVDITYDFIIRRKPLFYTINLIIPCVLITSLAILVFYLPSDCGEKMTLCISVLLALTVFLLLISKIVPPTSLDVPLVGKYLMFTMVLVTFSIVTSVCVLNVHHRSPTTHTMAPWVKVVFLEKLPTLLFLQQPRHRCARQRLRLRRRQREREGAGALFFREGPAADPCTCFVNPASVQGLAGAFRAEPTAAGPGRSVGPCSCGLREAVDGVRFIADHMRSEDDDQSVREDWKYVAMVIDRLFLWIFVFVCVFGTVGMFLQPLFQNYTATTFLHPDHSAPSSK
assay name: two-electrode voltage clamp, Xenopus oocytes
Format: cell-based
reported conditions: read-out: IC50 (μM (-)-menthol) ± SEM
measurement type: IC50

[[record]]
compound = "CC(C)[C@@H]1CC[C@@H](C)C[C@H]1O [(−)-menthol]"
measurement_type = "IC50"
assay_result = "165 µM"


----------
tgt: (α4)3(β2)2 nAChR (low sensitivity) (Rattus norvegicus, UniProt P09483+P12390, P09483:S286L)
Construct: gene Chrna4; subunits in pGEMhe, mRNA alpha4:beta2 10:1 injected in Xenopus laevis oocytes; pentamer
Sequence (P09483 31-630 S286L, one chain of several): as the sequence (P09483 31-630 L285I, one chain of several) above, with I255L, S256L counted along it
assay name: two-electrode voltage clamp, Xenopus oocytes
Format: cell-based
reported conditions: read-out: IC50 (μM (-)-menthol) ± SEM
measurement type: IC50 (µM)

[[record]]
compound = "CC(C)[C@@H]1CC[C@@H](C)C[C@H]1O [(−)-menthol]"
measurement_type = "IC50"
readout_unit = "µM"
assay_result = 29.4


----------
tgt: (α4)2(β2)3 nAChR (high sensitivity) (Rattus norvegicus, UniProt P09483+P12390, P09483:L285S)
Construct: gene Chrna4; subunits in pGEMhe, mRNA alpha4:beta2 1:10 injected in Xenopus laevis oocytes; pentamer
assay name: two-electrode voltage clamp, Xenopus oocytes
Format: cell-based
reported conditions: read-out: IC50 (μM (-)-menthol) ± SEM
measurement type: IC50 (µM)

[[record]]
compound = "CC(C)[C@@H]1CC[C@@H](C)C[C@H]1O [(−)-menthol]"
measurement_type = "IC50"
assay_result = 514


----------
tgt: (α4)2(β2)3 nAChR (high sensitivity) (Rattus norvegicus, UniProt P09483+P12390, P09483:L285W)
Construct: gene Chrna4; subunits in pGEMhe, mRNA alpha4:beta2 1:10 injected in Xenopus laevis oocytes; pentamer
assay name: two-electrode voltage clamp, Xenopus oocytes
Type: cell-based
reported conditions: read-out: IC50 (μM (-)-menthol) ± SEM
measurement type: IC50 (µM)

[[record]]
compound = "CC(C)[C@@H]1CC[C@@H](C)C[C@H]1O [(−)-menthol]"
measurement_type = "IC50"
readout_unit = "µM"
assay_result = 28.8


----------
tgt: (α4)2(β2)3 nAChR (high sensitivity) (Rattus norvegicus, UniProt P09483+P12390, P09483:L285C)
Construct: gene Chrna4; subunits in pGEMhe, mRNA alpha4:beta2 1:10 injected in Xenopus laevis oocytes; pentamer
assay name: two-electrode voltage clamp, Xenopus oocytes
Format: cell-based
reported conditions: read-out: IC50 (μM (-)-menthol) ± SEM
Description: two-electrode voltage clamp, Xenopus oocytes on (α4)2(β2)3 nAChR (high sensitivity)
measurement type: IC50 (µM)

[[record]]
compound = "CC(C)[C@@H]1CC[C@@H](C)C[C@H]1O [(−)-menthol]"
assay_result = 306


----------
tgt: (α4)2(β2)3 nAChR (high sensitivity) (Rattus norvegicus, UniProt P09483+P12390, P09483:L285M)
Construct: gene Chrna4; subunits in pGEMhe, mRNA alpha4:beta2 1:10 injected in Xenopus laevis oocytes; pentamer
Sequence (P09483 31-630 L285M, one chain of several): as the sequence (P09483 31-630 L285I, one chain of several) above, with I255M counted along it
assay name: two-electrode voltage clamp, Xenopus oocytes
Assay type: cell-based
reported conditions: read-out: IC50 (μM (-)-menthol) ± SEM
measurement type: IC50 (µM)

[[record]]
compound = "CC(C)[C@@H]1CC[C@@H](C)C[C@H]1O [(−)-menthol]"
assay_result = 26.6


----------
tgt: α5[wt](α4[wt]β2[wt])2 (Rattus norvegicus, UniProt P09483+P12390)
Construct: gene Chrna4; Xenopus laevis oocytes; alpha5 in the auxiliary position of alpha4beta2
Sequence (P09483 31-630, one chain of several): as the sequence (P09483 31-630 L285I, one chain of several) above, with I255L counted along it
Sequence (P20420 28-452 partner, one chain of several): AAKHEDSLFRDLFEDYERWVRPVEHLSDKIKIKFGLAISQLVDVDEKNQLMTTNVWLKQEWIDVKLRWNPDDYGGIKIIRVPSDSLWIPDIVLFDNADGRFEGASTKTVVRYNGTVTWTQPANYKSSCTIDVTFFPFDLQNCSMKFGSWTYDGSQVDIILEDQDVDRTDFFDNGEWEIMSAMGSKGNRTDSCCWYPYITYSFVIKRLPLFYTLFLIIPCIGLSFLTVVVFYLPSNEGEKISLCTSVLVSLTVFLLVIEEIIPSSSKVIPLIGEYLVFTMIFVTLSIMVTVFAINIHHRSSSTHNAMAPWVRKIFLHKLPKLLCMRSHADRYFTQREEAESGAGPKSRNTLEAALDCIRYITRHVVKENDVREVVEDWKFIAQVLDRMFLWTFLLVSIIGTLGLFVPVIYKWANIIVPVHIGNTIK
assay name: two-electrode voltage clamp, Xenopus oocytes
Assay type: cell-based
reported conditions: read-out: IC50 (μM (-)-menthol) ± SEM
measurement type: IC50 (µM)

[[record]]
molecule = "CC(C)[C@@H]1CC[C@@H](C)C[C@H]1O [(−)-menthol]"
tgt = "α5[wt](α4[wt]β2[wt])2 (Rattus norvegicus, UniProt P09483+P12390)"
readout_unit = "µM"
assay_result = 51

